Target: A3AR (Homo sapiens, UniProt P0DMS8)
Sequence (P0DMS8 whole entry): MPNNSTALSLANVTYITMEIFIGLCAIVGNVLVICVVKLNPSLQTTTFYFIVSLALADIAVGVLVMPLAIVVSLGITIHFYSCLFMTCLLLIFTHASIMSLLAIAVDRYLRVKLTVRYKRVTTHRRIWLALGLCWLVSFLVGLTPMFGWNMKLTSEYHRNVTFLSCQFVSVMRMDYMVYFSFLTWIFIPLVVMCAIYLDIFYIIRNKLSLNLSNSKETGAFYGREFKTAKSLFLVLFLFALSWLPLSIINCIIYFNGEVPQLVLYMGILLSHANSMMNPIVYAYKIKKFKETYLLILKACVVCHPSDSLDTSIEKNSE
Experiment: Binding affinity of A2AAR ligands, radioligand displacement at A3AR
Settings: number in parentheses
Quantity measured: selectivity ratio vs. the A2AAR, A3AR

# selectivity ratio vs. the A2AAR, A3AR (compound: `C#CCn1cnc2c(N)nc(C#C[C@]3(O)CCC[C@@H](C)C3)nc21` ) is 630

[1] C#CCn1cnc2c(NC(CC)CC)nc(C#C[C@]3(O)CCC[C@@H](C)C3)nc21
[2] C[C@@H]1CCC[C@@](O)(C#Cc2nc(N)c3ncn(C4CCCC4)c3n2)C1
**Q:** Endpoint returns the identifier whose selectivity ratio vs. the A2AAR, A3AR is numerically larger, either 1 or 2 . Respond using the label that marks the chosen record.
**A:** 2
(2: 63, 1: 38)

---

Quick note: these are pKi numbers for system: A2A adenosine receptor (Homo sapiens, UniProt P29274)
Sequence (P29274 whole entry): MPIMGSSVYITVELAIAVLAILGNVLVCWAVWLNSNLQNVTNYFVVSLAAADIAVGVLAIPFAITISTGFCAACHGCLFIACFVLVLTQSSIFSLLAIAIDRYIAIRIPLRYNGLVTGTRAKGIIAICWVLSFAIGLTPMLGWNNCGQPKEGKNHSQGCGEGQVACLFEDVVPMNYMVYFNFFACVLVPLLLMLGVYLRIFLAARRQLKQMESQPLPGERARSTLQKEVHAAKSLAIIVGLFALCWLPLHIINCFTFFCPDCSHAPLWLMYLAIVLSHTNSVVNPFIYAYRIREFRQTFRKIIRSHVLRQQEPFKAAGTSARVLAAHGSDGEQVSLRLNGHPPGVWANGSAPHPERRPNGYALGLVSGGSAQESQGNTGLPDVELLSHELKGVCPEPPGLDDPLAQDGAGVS
pKi: −log10 of the molar value.

Answered cases to consult:
# value of pKi, A2A adenosine receptor (Homo sapiens, UniProt P29274), item `C#CCn1cnc2c(NCc3ccccn3)nc(C#C[C@]3(O)CCC[C@@H](C)C3)nc21` = > 7.00

Recorded pKi for `CCOC(=O)Cn1cnc2c(NC(CC)CC)nc(C#C[C@]3(O)CCC[C@@H](C)C3)nc21` on A2A adenosine receptor (Homo sapiens, UniProt P29274) was > 6.30

Bench note, A2A adenosine receptor (Homo sapiens, UniProt P29274): `C#CCn1cnc2c(N[C@@H](C)c3cccc4ccccc34)nc(C#C[C@]3(O)CCC[C@@H](C)C3)nc21` , pKi reads > 6.30

I looked up Nc1nc(C#CC2(O)C3CC4CC(C3)CC2C4)nc2c1ncn2CC1CCCC1 (centres unmarked) and its pKi for A2A adenosine receptor (Homo sapiens, UniProt P29274) was > 6.30

Summary: CCCCCCn1cnc2c(N)nc(C#CC3(O)C4CC5CC(C4)CC3C5)nc21 (centres unmarked) , A2A adenosine receptor (Homo sapiens, UniProt P29274), pKi = > 6.00

The observed pKi for `CCC(CC)Nc1nc(C#C[C@]2(O)CCC[C@@H](C)C2)nc2c1ncn2CCO` when tested with A2A adenosine receptor (Homo sapiens, UniProt P29274) stands at > 7.00

Here C#CCn1cnc2c(N)nc(C#CC3(O)CC4CCC3C4)nc21 (single isomer, unassigned) was tested on A2A adenosine receptor (Homo sapiens, UniProt P29274), and its pKi came to > 7.00

Switching to the query record.
GET /values?item= `CC[C@H](C)Nc1nc(C#C[C@]2(O)CCC[C@@H](C)C2)nc2c1ncn2Cc1c(C)noc1C` &system= A2A adenosine receptor (Homo sapiens, UniProt P29274) returns pKi: > 7.00

---

Molecular target: A2AAR (Homo sapiens)
Sequence (P29274 whole entry): as above
Assay: Binding affinity of A2AAR ligands, radioligand displacement at A2AAR
Quantity measured: Ki (nM)

Log: A2AAR (Homo sapiens), molecule CCC(CC)Nc1nc(C#C[C@]2(O)CCC[C@@H](C)C2)nc2c1ncn2C [Compound 11] , Ki = 137

[A] C[C@@H]1CCC[C@@](O)(C#Cc2nc(N)c3ncn(C4CCCC4)c3n2)C1 [Compound 3]
[B] C#CCn1cnc2c(N)nc(C#CC3(O)C4CC5CC(C4)CC3C5)nc21 (stereo not drawn) [Compound 51]
**Q:** Which numeric Ki is bigger, that of A or that of B ? Please reply using the label of the selected record.
**A:** A
(A: 10 nM, B: 1.6 nM)
